Cited source for all entries: ChEMBL document CHEMBL3988442

molecular target: Ubiquitin-activating enzyme e1, putative (Leishmania donovani (strain BPK282A1)) (UniProt E9BSI1); test: Leishmania donovani Ubiquitin Activating Enzyme (LdE1); format: functional; design: scale not given: direction of the effect not stated beside the values; conditions: 30 µM
Sequence (E9BSI1 as listed by the source): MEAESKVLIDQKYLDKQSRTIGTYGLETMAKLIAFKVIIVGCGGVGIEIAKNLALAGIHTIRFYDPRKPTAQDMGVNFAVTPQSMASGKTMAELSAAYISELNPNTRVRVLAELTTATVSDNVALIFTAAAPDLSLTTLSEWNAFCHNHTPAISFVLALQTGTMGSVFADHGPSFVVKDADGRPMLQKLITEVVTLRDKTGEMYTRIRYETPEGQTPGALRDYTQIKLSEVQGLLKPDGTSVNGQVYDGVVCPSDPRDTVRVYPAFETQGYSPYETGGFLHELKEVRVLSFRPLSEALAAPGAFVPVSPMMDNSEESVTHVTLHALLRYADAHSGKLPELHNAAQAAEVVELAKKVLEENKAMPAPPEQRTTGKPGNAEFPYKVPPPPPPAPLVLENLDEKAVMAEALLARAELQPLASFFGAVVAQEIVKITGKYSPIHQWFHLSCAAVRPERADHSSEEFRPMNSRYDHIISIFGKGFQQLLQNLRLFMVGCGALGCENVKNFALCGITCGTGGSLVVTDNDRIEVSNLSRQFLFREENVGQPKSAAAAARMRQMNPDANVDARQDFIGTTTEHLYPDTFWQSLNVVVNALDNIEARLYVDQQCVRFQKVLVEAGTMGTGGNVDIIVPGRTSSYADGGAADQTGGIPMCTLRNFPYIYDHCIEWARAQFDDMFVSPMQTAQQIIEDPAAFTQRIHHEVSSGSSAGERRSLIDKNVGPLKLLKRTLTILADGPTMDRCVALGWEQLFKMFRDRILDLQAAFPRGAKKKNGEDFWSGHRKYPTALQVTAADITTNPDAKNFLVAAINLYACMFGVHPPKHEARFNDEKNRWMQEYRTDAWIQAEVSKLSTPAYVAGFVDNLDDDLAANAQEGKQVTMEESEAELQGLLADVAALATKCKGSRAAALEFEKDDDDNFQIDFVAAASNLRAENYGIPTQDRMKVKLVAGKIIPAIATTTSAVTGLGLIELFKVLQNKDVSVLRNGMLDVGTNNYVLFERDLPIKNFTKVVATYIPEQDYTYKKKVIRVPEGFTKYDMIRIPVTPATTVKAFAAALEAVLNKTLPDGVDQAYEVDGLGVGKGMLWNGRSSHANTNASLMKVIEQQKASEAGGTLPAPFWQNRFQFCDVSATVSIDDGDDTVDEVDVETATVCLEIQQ
Potency and affinity values are given separately.
Percent Effect listing for selected compounds.
Provide the reading as a plain figure in %.

// worked examples, Percent Effect included
>  <compound>
COc1cc(C)c(C(C)NC(=O)Nc2nnc(C)s2)cc1OC (stereo unspecified)

>  <value measured>
5.41

$$$$
>  <compound>
CSCC[C@H](N)C(=O)NCc1cc2n(n1)CCCN(C(=O)C1CCC1)C2

>  <value measured>
6.94

$$$$
>  <compound>
O=C(c1cnoc1)N1CCC[C@]2(C[C@H](Oc3ncccc3F)CO2)C1

>  <value measured>
-30.1

$$$$
>  <compound>
CNCC(=O)N1CCCC(c2nccnc2Oc2cccc(F)c2)C1 (stereo unspecified)

>  <value measured>
10.7

$$$$
>  <compound>
CCN(Cc1ccc2c(c1)OCO2)C(=O)c1ccc(C)[nH]c1=O

>  <value measured>
13.2

$$$$

# next compound below
Given the compound CN(c1ccc(F)c(F)c1)S(=O)(=O)c1cc(C(=O)O)cs1 , what is its reported Percent Effect?
-5.41
